Ref: patent US7253178B2

target: PPAR γ (Homo sapiens, UniProt P37231); construct: 174-475 (PPARγ); experiment: Transcriptional activity, GAL4-PPAR LBD chimera / PLAP reporter in CV-1 cells; conditions: GAL4-PPARγ LBD (174-475), PLAP activity 24 hours after addition, read-out: Transcriptional activities EC50 PPAR γ
Sequence (P37231 202-503): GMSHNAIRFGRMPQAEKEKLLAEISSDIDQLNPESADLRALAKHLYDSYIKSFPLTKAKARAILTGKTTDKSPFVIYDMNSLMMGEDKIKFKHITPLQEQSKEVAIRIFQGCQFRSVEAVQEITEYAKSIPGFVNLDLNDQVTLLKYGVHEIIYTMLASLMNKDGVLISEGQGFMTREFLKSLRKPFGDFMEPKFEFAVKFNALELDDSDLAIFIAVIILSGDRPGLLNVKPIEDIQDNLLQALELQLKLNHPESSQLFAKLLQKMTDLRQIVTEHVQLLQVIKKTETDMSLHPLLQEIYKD
property: EC50

Previously resolved entries follow.
[
  {
    "compound": "CCOC(Cc1ccnc(OCCOc2ccc(C(C)(C)C)cc2)c1)C(=O)O (stereo not drawn)",
    "reportedResult": "76.3 nM"
  },
  {
    "compound": "CCOC(Cc1ccnc(OCCOc2ccc(C(F)(F)F)cc2)c1)C(=O)O (stereo not drawn)",
    "reportedResult": "64.1 nM"
  }
]

Next compound, EC50 to be filled in.
Query: Which EC50 value is on record for CC(C)OC(Cc1ccnc(OCCOc2ccc(Cl)cc2Cl)c1)C(=O)O (stereo not drawn) ?
Result: 68.5 nM
